Assay: Substrate depletion approach, in vitro clearance (CLint) with rat liver S9
Assay type: in vitro ADME
Condition set: male, Sprague-Dawley, rat, liver S9 fraction, pH 7.4, male Sprague–Dawley rat liver S9, individual co-factor PAPS, 3 µM substrate
Outcome measure: CLint in liver S9 at 3 µM (µL/min/mg)
Give just the number in µL/min/mg; leave the unit off.

Using the record for C[C@]12CC[C@@H]3c4ccc(O)cc4CC[C@H]3[C@@H]1CC[C@@H]2O [E2, 17β-estradiol] , report its CLint in liver S9 at 3 µM. 4.4

Param item: CC(C)(c1ccc(O)cc1)c1ccc(O)cc1 3.4

* * *

Assay: Substrate depletion approach, in vitro clearance (CLint) with rat liver S9
Assay type: in vitro ADME
Condition set: female, Sprague-Dawley, rat, liver S9 fraction, pH 7.4, female Sprague–Dawley rat liver S9, all co-factors (NADPH, UDPGA, PAPS, acetyl CoA) in one mixture; read-out: Female CLint
For each of the compounds below, state its microsomal CLint at 3 µM.
Give just the number in µL/min/mg; leave the unit off.

Using the record for C[C@]12CC[C@@H]3c4ccc(O)cc4CC[C@H]3[C@@H]1CC[C@@H]2O [E2, 17β-estradiol] , report its microsomal CLint at 3 µM. 65.5

Param item: CC(C)(c1ccc(O)cc1)c1ccc(O)cc1 [BPA, bisphenol A] 432

* * *

System: uterus weight in rats
Assay: In vivo uterotrophic assay and BMD analysis (PROAST) of its data
Parameters: species or system rat
Condition set: PROAST exponential model, BMR 10%, absolute uterus weight, in vivo data of Kanno et al. 2003 (doses in mg/kg bw)
Outcome measure: BMD (BMD10)
# include the unit after the value

Using the record for CC(C)(c1ccc(O)cc1)c1ccc(O)cc1 [BPA, bisphenol A] , report its BMD (BMD10). 207 mg/kg

* * *

Assay: Rapid equilibrium dialysis (RED), fraction unbound in rat serum
Assay type: in vitro ADME
Condition set: RED 5 h at 37 °C, read-out: f ub (fraction unbound)
Outcome measure: fraction unbound at 5 h, 5 µM
Response field accepts a number only; no unit should be typed.

Using the record for C[C@]12CC[C@@H]3c4ccc(O)cc4CC[C@H]3[C@@H]1CC[C@@H]2O [E2, 17β-estradiol] , report its fraction unbound at 5 h, 5 µM. 0.05

Param item: CC(C)(c1ccc(O)cc1)c1ccc(O)cc1 0.04

* * *

Assay: Substrate depletion approach, in vitro clearance (CLint) with rat liver S9
Format: in vitro ADME
Condition set: male, Sprague-Dawley, rat, liver S9 fraction, pH 7.4, male Sprague–Dawley rat liver S9, individual co-factor UDPGA, 3 µM substrate
Outcome measure: CLint in liver S9 at 3 µM (µL/min/mg)
Give just the number in µL/min/mg; leave the unit off.

Using the record for C[C@]12CC[C@@H]3c4ccc(O)cc4CC[C@H]3[C@@H]1CC[C@@H]2O [E2, 17β-estradiol] , report its CLint in liver S9 at 3 µM. 23.3

Param item: CC(C)(c1ccc(O)cc1)c1ccc(O)cc1 [BPA, bisphenol A] 340

* * *

For each of the compounds below, state its microsomal CLint at 3 µM.
Assay: Substrate depletion approach, in vitro clearance (CLint) with rat liver S9
Format: in vitro ADME
Condition set: male, Sprague-Dawley, rat, liver S9 fraction, pH 7.4, male Sprague–Dawley rat liver S9; read-out: CLint, SUM of incubations with individual co-factors
Give just the number in µL/min/mg; leave the unit off.

Using the record for CC(C)(c1ccc(O)cc1)c1ccc(O)cc1 [BPA, bisphenol A] , report its microsomal CLint at 3 µM. 403

Param item: C[C@]12CC[C@@H]3c4ccc(O)cc4CC[C@H]3[C@@H]1CC[C@@H]2O [E2, 17β-estradiol] 182
